readout_kind: melting point

compound	measurement
O=C(NC1C2CC3CC(C2)CC1C3)c1nn(-c2ccc(F)cc2F)c2c1C1CCC2C1 (stereo not shown) [Example 309]	159 to 161 °C
CC(C)(NC(=O)c1nn(-c2ccc(F)cc2)c2c1C1CCC2C1)c1ccccc1 (stereo not shown) [Example 282]	119 to 122 °C
CC12CCC(C1)C(C)(C)C2NC(=O)c1nn(-c2ccc(F)cc2F)c2c1C1CCC2(C)C1(C)C (stereo not shown) [Example 406]	171 to 173 °C
CC12CCC(c3c(C(=O)Nc4ccccc4)nn(-c4ccc(Cl)cc4Cl)c31)C2(C)C (stereo not shown) [Example 401]	112 to 115 °C
CCC(C)(C)NC(=O)c1nn(-c2ccc(F)cc2F)c2c1C1CCC2CC1 [Example 802]	102 to 105 °C
O=C(NNc1ccc(Cl)cc1)c1n[nH]c2c1C1(c3ccc(Cl)cc3)CCC2C1 (stereo not shown) [Example 229]	202 to 205 °C
O=C(NCc1ccc(F)cc1)c1nn(-c2ccc(Cl)cc2)c2c1C1CCC2C1 (stereo not shown) [Example 226]	104 to 107 °C
CN(NC(=O)c1nn(-c2ccc(Cl)cc2Cl)c2c1C1CCC2C1)c1ccc(Cl)cc1Cl (stereo not shown) [Example 261]	135 to 138 °C

Could you share which melting point value was measured for O=C(NCc1ccccc1Cl)c1nn(-c2ccc(Cl)cc2)c2c1C1CCC2C1 (stereo not shown) [Example 221] ?
119 to 122 °C

Give the measured melting point of O=C(NC12CC3CC(CC(O)(C3)C1)C2)c1nn(-c2ccc(F)cc2F)c2c1C1CC3CC(C1)CC2C3 [Example 156] .
240 to 243 °C

----------
Let's look at some molecules and their measured melting point.

molecule	melting point
CC[C@H](NC(=O)c1nn(-c2ccc(F)cc2F)c2c1C1CC3CC(C1)CC2C3)c1ccccc1 [Example 152]	127 to 129 °C
C[C@@H](NC(=O)c1nn(-c2ccc(Cl)cc2Cl)c2c1C1CCC2C1)c1ccccc1 (stereo partly shown) [Example 253]	89 to 92 °C
O=C(NN1CCCCC1)c1nn(-c2ccccc2)c2c1C1CCC2C1 (stereo not shown) [Example 201]	144 °C
C[C@@H](NC(=O)c1nn(-c2ccc(F)cc2F)c2c1C1CCC2C1)c1ccccc1 (stereo partly shown) [Example 293]	40 to 45 °C
O=C(NCCc1ccccc1)c1nn(-c2ccc(Cl)cc2Cl)c2c1C1CC3CC(C1)CC2C3 [Example 178]	63 to 66 °C

Using the record for O=C(NCc1ccccc1Cl)c1nn(-c2ccc(Cl)cc2)c2c1C1CC3CC(C1)CC2C3 [Example 111] , report its melting point.
162 to 164 °C

Sample O=C(NC1CCCCC1)c1nn(-c2ccc(Cl)cc2)c2c1C1CC3CC(C1)CC2C3 [Example 106] — what was its melting point?
162 °C

So what does the record say about melting point for O=C(Nc1ccccc1)c1nn(-c2ccc(Cl)cc2Cl)c2c1C1CCC2C1 (stereo not shown) [Example 243] ?
66 to 68 °C

Which value of melting point has been reported for O=C(NCC1CCCCC1)c1nn(-c2ccc(F)cc2F)c2c1C1CCC2C1 (stereo not shown) [Example 291] in the records?
94 to 97 °C

Field request: melting point | item: O=C(NNc1ccccc1)c1nn(-c2ccccc2Cl)c2c1C1CCC2C1 (stereo not shown) [Example 208]
205 °C

Given the molecule O=C(NCc1ccc(Cl)cc1Cl)c1nn(-c2ccc(Cl)cc2)c2c1C1CCC2C1 (stereo not shown) [Example 223] , what is its reported melting point?
108 to 111 °C

Reported melting point for O=C(NNc1cccc(F)c1)c1nn(-c2ccc(Cl)cc2Cl)c2c1C1CCC2C1 (stereo not shown) [Example 266] : what is it?
190 °C

Any idea what melting point was measured for O=C(NCc1ccccc1Cl)c1nn(-c2ccc(F)cc2F)c2c1C1CC3CC(C1)CC2C3 [Example 149] ?
136 °C
